Here the recorded Yap1 mRNA, % UTC is given for each entry.
# Tested on: Yap1 mRNA
# Assay text: Dose-dependent inhibition of human Yap1 in A-431 cells (Example 6, 5,000 cells per well, RTS4814)
# Format: cell-based
# Test conditions: Table 55; 1333 nM, free uptake, A-431 cells 5,000 cells per well, 48 hours, RTS4814
Strand notation (5' to 3'): a small letter for the sugar, then the base; units joined by * are phosphorothioate-linked, units joined directly phosphodiester-linked; [ ] holds rarer units or linkages, { } end groups; capitals alone tell only the bases. k = constrained ethyl (cEt); [5mC] = 5-methylcytosine; d = 2'-deoxy (DNA)
Numeric answer only, unit % UTC assumed.

Substance	Yap1 mRNA, % UTC / % UTC
716455 (antisense kG*kT*kT*dA*dT*dG*dT*dT*dT*dG*dG*dG*dT*kG*kT*kG) [compound 716455]	49
716489 (antisense kA*kG*kT*dT*dA*dA*dT*dT*d[5mC]*dA*dT*dG*d[5mC]*kT*k[5mC]*kG) [compound 716489]	69
716524 (antisense kA*k[5mC]*kT*dG*dA*dG*dG*dT*dA*dT*dA*dA*d[5mC]*kT*kG*kG) [compound 716524]	96
716537 (antisense kA*kT*kG*dT*dG*d[5mC]*dT*d[5mC]*d[5mC]*dA*dT*d[5mC]*dA*kA*k[5mC]*k[5mC]) [compound 716537]	88
716387 (antisense kT*kA*kT*dG*dG*dT*dT*dT*dA*dT*dA*dT*dA*kG*kT*kA) [compound 716387]	80

Attention now shifts to the item below.
Challenge: If you can, please state the reported Yap1 mRNA, % UTC value of 716543 (antisense kT*kA*kT*dT*dT*dG*dT*dA*dG*d[5mC]*dA*dA*dA*kG*kT*k[5mC]) [compound 716543] .
Response given: 79
